TARGET: T1, HLA-A*0201 molecule expressed on human T2 cells (human)
T1 construct: also called HLA-A2
ASSAY_NAME: T2 cells (HLA-A*0201), peptide at 1 µM, anti-HLA-A2 flow cytometry
Recorded mean relative fluorescence intensity (HIV peptide = 100) for the following binders

{"BINDER": "LLFGAPALL (also called TNFRSF13-H1) [TNFRSF13C-H1]", "RESULT": "2 % of HIV pol 589-597 at 100 µM"}
{"BINDER": "IMNSLSLFA [MS4A1-H4]", "RESULT": "0.3 % of HIV pol 589-597 at 100 µM"}

Query string: For the binder shown here, AMNSLSLYI [MS4A1-B4] , give the reported mean relative fluorescence intensity (HIV peptide = 100).
Result string: 1.9 % of HIV pol 589-597 at 100 µM

Query string: Please answer likewise for WVFEHPETL [CD22-H1]
Result string: 10 % of HIV pol 589-597 at 100 µM

Query string: Please answer likewise for YILGGLLMV [MS4A1-B12]
Result string: 1.1 % of HIV pol 589-597 at 100 µM

Query string: Please answer likewise for SLVGILHII [CD19-B11]
Result string: 5.2 % of HIV pol 589-597 at 100 µM

Reference for the values: patent US20220323561A1
